Measured z-score accompanies every entry in the list below.
# test-name: A549 lung cancer cell viability effects, profiling panel, resazurin fluorescence, 24 h, PK04 Diversity Set (AID 1171); note: test concentration not given here
# condition-info: higher = more signal, called active from +8 up or from −8 down
Activity calls are given as the source filed them.

{"molecule": "CN1C(=O)C2C=CC(C(O)C(c3ccccc3)c3ccccc3)N(NC(=O)OC(C)(C)C)C2C1=O (stereo not given)", "z-score": "0.383 (inactive)"}
{"molecule": "CCc1cc2c(nc1CC)CCN(CCC(C)=NOC[C@@H](O)[C@H]1O[C@@H]3OC(C)(C)O[C@@H]3[C@H]1O)C2", "z-score": "-0.0919 (inactive)"}
{"molecule": "COC(=O)[C@@]1(Cc2ccccc2)[C@H]2c3cc(C(=O)N4CCCC4)n(Cc4ccccn4)c3C[C@H]2CN1C(=O)c1ccccc1", "z-score": "-1.53 (inactive)"}
{"molecule": "Cc1ccc(C2CC=C(C(=O)O)CN2S(=O)(=O)c2ccc(C)cc2)cc1 (stereo not given)", "z-score": "-0.716 (inactive)"}
{"molecule": "CCCNC(=O)[C@@H]1c2ccccc2C(=O)N(Cc2ccccc2Cl)[C@H]1c1ccc(CO)cc1", "z-score": "2.06 (inactive)"}
{"molecule": "C=CC[C@@H]1C=C[C@H](ON=C2c3cc(OC)ccc3O[C@H](c3cccc(OC)c3)[C@H]2O)[C@@H](CO)O1", "z-score": "-1.25 (inactive)"}
{"molecule": "CCOC(=O)NN=C1C[C@@H](O)[C@@H](O)[C@@H]2[C@@H]3C(=O)N(C4CCCCC4)C(=O)[C@@H]3CC[C@H]12", "z-score": "-1.23 (inactive)"}
{"molecule": "C[C@@H](c1ccccc1)N1C(=O)[C@H]2[C@H]3[C@H](O)C=CC(=O)[C@@H]3CC[C@H]2C1=O", "z-score": "0.165 (inactive)"}
{"molecule": "COc1ccccc1CN1C(=O)c2ccccc2[C@@]2(Cc3ccccc3N(C(C)C)C2=O)[C@@H]1c1ccc(CO)cc1", "z-score": "-1.64 (inactive)"}
{"molecule": "O=C1[C@H]2[C@H]3[C@H](O)[C@H](O)CC(=NO[C@@H]4O[C@H](CO)[C@@H](O)[C@H](O)[C@H]4O)[C@@H]3CC[C@H]2C(=O)N1Cc1ccccc1", "z-score": "0.222 (inactive)"}
{"molecule": "CCCC[C@@H]1C[C@H]1[C@@H](NS(=O)(=O)c1cccc2cccnc12)c1ccc(-c2ccccc2)cc1", "z-score": "0.239 (inactive)"}
{"molecule": "CC(C)=CCCC(C)=CCON=C1[C@H]2CCn3c(=O)n(C)c(=O)n3[C@H]2[C@H](O)[C@@H]2O[C@H]12", "z-score": "-0.83 (inactive)"}
{"molecule": "O=C1[C@H]2[C@H]3[C@H](O)[C@H](O)CC(=NO[C@@H]4O[C@H](CO)[C@@H](O)[C@H](O)[C@H]4O)[C@@H]3CC[C@H]2C(=O)N1c1ccc(F)cc1F", "z-score": "-0.126 (inactive)"}
{"molecule": "COCCOC(=O)N1C(=O)[C@@]2(c3cc(C#CC4(O)CCCCCC4)ccc31)[C@H](C(=O)N1CCN(c3ncccn3)CC1)[C@H]1C(=O)O[C@H](c3ccccc3)[C@H](c3ccccc3)N1[C@@H]2c1ccc(OCCO)cc1", "z-score": "-0.49 (inactive)"}
{"molecule": "COC(=O)CC=C[C@H](C)[C@@H](OCc1ccccc1Br)C(C)C", "z-score": "-0.307 (inactive)"}
